# target entity: T1, extracellular tau in the form of paired helical filaments (ePHF tau) (UniProt P10636-8 1-441, limits assumed)
# T1 construct: Aggregated, hyperphosphorylated tau preparation; not a single defined polypeptide
# T1 sequence (P10636 other isoform, or with tags, fused parts or gaps limits assumed): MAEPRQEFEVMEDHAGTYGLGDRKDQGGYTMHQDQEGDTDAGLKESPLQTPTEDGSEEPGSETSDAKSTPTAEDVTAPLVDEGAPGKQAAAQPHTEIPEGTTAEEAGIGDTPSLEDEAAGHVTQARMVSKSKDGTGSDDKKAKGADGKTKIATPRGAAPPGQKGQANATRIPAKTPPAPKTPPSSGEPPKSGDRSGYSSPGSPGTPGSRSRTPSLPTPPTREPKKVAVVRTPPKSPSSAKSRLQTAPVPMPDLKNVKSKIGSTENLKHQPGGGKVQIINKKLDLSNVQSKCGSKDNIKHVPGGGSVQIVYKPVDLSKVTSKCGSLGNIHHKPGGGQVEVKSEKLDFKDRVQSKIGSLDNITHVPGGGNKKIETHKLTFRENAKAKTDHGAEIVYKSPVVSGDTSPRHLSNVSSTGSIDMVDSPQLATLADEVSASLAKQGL
# assay protocol: ePHF tau ELISA, ePHF coated; antibody at 0.7 ng/ml; anti-mouse-HRP
binders and their reported OD450
Only the number, expressed in OD450, is required.

These solved cases illustrate the format of a correct answer.
anti-tau antibody MC1 expressed from viral genome construct MC1HF.P2AL (TAU_ITR73; SEQ ID NO: 2062) (antibody, V domains shown) VH: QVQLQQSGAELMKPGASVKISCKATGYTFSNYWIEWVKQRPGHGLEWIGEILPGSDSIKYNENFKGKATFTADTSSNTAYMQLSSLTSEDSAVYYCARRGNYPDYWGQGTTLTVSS VL: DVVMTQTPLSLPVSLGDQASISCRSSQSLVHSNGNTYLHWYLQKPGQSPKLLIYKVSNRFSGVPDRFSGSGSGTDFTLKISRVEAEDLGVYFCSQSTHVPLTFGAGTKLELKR ... 0.1
anti-tau antibody MC1 expressed from viral genome construct MC1LIRESH (TAU_ITR80; SEQ ID NO: 2069) (antibody, mouse IgG1, kappa, V domains shown) VH: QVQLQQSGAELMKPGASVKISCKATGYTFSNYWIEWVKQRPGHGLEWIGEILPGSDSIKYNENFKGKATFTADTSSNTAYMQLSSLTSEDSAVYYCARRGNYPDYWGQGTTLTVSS VL: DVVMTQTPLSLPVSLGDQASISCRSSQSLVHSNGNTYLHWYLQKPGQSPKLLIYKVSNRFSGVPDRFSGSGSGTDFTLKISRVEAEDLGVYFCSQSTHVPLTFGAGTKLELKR ... 0.1

Now look at this one.
Supply reported OD450 belonging to this binder: anti-tau antibody MC1 expressed from viral genome construct MC1LF.F2AH (TAU_ITR78; SEQ ID NO: 2067) (antibody, V domains shown) VH: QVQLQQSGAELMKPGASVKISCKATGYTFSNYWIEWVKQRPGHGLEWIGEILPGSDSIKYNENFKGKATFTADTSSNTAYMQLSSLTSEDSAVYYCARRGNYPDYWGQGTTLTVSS VL: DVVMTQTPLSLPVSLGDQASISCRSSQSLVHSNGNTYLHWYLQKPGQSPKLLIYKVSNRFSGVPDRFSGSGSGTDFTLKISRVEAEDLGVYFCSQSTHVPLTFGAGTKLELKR
0.1
